These measurements were taken from patent US7858630B2.

- subjectOfTest: human dopamine D3 receptor (Homo sapiens, UniProt P35462)
- Sequence (P35462 whole entry): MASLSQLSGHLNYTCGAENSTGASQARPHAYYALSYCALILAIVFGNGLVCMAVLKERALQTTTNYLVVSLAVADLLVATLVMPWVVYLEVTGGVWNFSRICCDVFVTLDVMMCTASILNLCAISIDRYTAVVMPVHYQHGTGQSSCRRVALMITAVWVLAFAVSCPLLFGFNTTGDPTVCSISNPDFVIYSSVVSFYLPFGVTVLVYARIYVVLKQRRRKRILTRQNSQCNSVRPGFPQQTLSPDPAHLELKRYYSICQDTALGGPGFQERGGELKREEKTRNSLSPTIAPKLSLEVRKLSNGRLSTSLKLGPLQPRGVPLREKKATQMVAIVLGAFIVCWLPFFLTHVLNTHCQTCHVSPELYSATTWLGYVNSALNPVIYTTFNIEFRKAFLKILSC
We label by threshold. Values of Ki strictly beneath 10 nM are t. Values of 10 nM and up are f.

- molecule: "CO[C@@H]1CC[C@@H](CC(=O)N[C@H]2CC[C@H](CCN3CCN(c4noc5ccccc45)CC3)CC2)C1 (relative stereo)"
  answerLabel: "f"
- molecule: "CO[C@H]1CC[C@H](CC(=O)N[C@H]2CC[C@H](CCN3CCN(c4noc5cc(Cl)c(Cl)cc45)CC3)CC2)CC1"
  answerLabel: "f"
- molecule: "COC(CCC(=O)N[C@H]1CC[C@H](CCN2CCN(c3noc4ccc(F)cc34)CC2)CC1)OC"
  answerLabel: "t"
- molecule: "COC(C)C(=O)N[C@H]1CC[C@H](CCN2CCN(c3noc4cc(F)c(C)cc34)CC2)CC1 (stereo partly drawn)"
  answerLabel: "f"
- molecule: "O=C(CC1CC1)N[C@H]1CC[C@H](CCN2CCN(c3noc4cc(F)c(Cl)cc34)CC2)CC1"
  answerLabel: "t"

Now examine the next entry.
Input: Does the reported Ki of O=C(N[C@H]1CC[C@H](CCN2CCN(c3noc4cc(Cl)c(Cl)cc34)CC2)CC1)C1CCOCC1 stay below 10 nM?
Output: f

* * *

- subjectOfTest: human serotonin 5-HT2A receptor (Homo sapiens, UniProt P28223)
- Sequence (P28223 whole entry): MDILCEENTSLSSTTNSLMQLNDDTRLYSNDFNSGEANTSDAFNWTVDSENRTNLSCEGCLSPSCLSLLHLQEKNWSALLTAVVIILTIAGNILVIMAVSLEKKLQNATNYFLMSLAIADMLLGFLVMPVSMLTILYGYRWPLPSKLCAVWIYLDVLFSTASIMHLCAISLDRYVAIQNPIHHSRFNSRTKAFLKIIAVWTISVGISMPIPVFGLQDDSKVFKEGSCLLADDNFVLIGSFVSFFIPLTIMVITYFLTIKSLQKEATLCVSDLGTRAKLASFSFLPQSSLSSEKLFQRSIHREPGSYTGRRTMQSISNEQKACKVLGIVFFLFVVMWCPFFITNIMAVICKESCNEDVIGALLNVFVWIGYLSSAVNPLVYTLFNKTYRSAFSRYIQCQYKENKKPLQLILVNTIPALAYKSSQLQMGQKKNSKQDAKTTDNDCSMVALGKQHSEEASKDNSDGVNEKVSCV
pKi: −log10 of the molar value.
// no strictly below 8 in pKi; yes otherwise

Input: Kindly determine if pKi recorded for COC(CCC(=O)N[C@H]1CC[C@H](CCN2CCN(c3noc4ccc(F)cc34)CC2)CC1)OC is above or exactly 8.
Output: no

Input: Kindly determine if pKi recorded for CO[C@@H]1CC[C@@H](CC(=O)N[C@H]2CC[C@H](CCN3CCN(c4noc5ccccc45)CC3)CC2)C1 (relative stereo) is above or exactly 8.
Output: no

Input: Kindly determine if pKi recorded for COCCC(=O)N[C@H]1CC[C@H](CCN2CCN(c3noc4cc(C)ccc34)CC2)CC1 is above or exactly 8.
Output: yes

Input: Kindly determine if pKi recorded for CO[C@H]1CC[C@H](CC(=O)N[C@H]2CC[C@H](CCN3CCN(c4noc5cc(Cl)ccc45)CC3)CC2)C1 (relative stereo) is above or exactly 8.
Output: yes

* * *

Please consider the recorded Ki for UniProtKB P28223 in what follows.
Give bare numbers, in nM.

Field: example entries. Status: answers known.
- compound: "Cc1cc2c(N3CCN(CC[C@H]4CC[C@H](NC(=O)CC5COCCO5)CC4)CC3)noc2cc1F (stereo partly shown) [Example 113]"
  subjectOfTest: "UniProtKB P28223"
  Ki (nM): 14
- compound: "CO[C@@H]1CC[C@@H](CC(=O)N[C@H]2CC[C@H](CCN3CCN(c4noc5cc(F)c(F)cc45)CC3)CC2)C1 (relative stereo) [Example 65]"
  subjectOfTest: "UniProtKB P28223"
  Ki (nM): 4.4
- compound: "CCOCC(=O)N[C@H]1CC[C@H](CCN2CCN(c3noc4ccc(F)cc34)CC2)CC1 [Example 12]"
  subjectOfTest: "UniProtKB P28223"
  Ki (nM): 23.5

Input: Item O=C(N[C@H]1CC[C@H](CCN2CCN(c3noc4cc(Cl)ccc34)CC2)CC1)C(O)C(F)(F)F (mixture of isomers) [Example 33] : provide Ki
Output: 12.4

* * *

- subjectOfTest: human dopamine D3 receptor (Homo sapiens)
- Construct: expressed in transfected cells; host or cells: HEK-293 EBNA cells, transient transfection; membrane preparation
- methodNotes: Radioligand binding ([3H]-spiperone) to membranes of HEK-293 EBNA cells expressing human D3 receptor
- studyConditions: human D3, 0.5 nM [3H]-spiperone, HEK-293 EBNA membranes, 1 h at RT
observable: pKi
Answers are plain numbers, as −log10 of the molar value.

Field: example entries. Status: answers known.
- molecule: "CC(C)OC1CCC(CC(=O)N[C@H]2CC[C@H](CCN3CCN(c4noc5cc(Cl)ccc45)CC3)CC2)CC1 (mixture of isomers)"
  observable: "pKi"
  valueMeasured: 7.98
- molecule: "COC(CC(=O)N[C@H]1CC[C@H](CCN2CCN(c3noc4cc(F)c(Cl)cc34)CC2)CC1)OC"
  observable: "pKi"
  valueMeasured: 8.20
- molecule: "COc1ccc(C(=O)N[C@H]2CC[C@H](CCN3CCN(c4noc5cc(F)c(Cl)cc45)CC3)CC2)s1"
  observable: "pKi"
  valueMeasured: 8.09
- molecule: "O=C(C[C@@H]1CCCCO1)N[C@H]1CC[C@H](CCN2CCN(c3noc4cc(Cl)ccc34)CC2)CC1"
  observable: "pKi"
  valueMeasured: 7.63
- molecule: "COC1CCC(C(=O)N[C@H]2CC[C@H](CCN3CCN(c4noc5ccc(F)cc45)CC3)CC2)CC1 (stereo partly shown)"
  observable: "pKi"
  valueMeasured: 7.38
- molecule: "O=C(N[C@H]1CC[C@H](CCN2CCN(c3noc4cc(F)c(Cl)cc34)CC2)CC1)C1CC(Cl)C1 (stereo partly shown)"
  observable: "pKi"
  valueMeasured: 8.23

Alright, here's another molecule for you.
Input: Item COC[C@H]1C[C@H](CC(=O)N[C@H]2CC[C@H](CCN3CCN(c4noc5ccc(F)cc45)CC3)CC2)C1 : provide pKi
Output: 8.00

* * *

What log10 of Ki was measured for each of the following?
- subjectOfTest: human dopamine D2 receptor (Homo sapiens)
- Construct: membrane preparation
- Sequence (P14416 whole entry): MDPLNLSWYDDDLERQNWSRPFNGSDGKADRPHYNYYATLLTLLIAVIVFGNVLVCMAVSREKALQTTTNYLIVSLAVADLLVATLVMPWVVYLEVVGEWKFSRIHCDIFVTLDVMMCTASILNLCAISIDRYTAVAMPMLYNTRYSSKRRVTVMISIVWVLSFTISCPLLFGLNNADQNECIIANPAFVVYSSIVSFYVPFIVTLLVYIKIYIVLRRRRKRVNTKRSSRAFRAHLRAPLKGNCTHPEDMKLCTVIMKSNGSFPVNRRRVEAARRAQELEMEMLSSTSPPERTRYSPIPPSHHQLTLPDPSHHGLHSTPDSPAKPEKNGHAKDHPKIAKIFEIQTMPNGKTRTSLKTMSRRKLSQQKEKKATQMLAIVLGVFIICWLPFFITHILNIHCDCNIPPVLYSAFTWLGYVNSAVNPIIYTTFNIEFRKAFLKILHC
- methodNotes: Radioligand binding ([3H]-spiperone) to membranes of HEK-293 EBNA cells expressing human D2 receptor
- studyConditions: human D2, 0.7 nM [3H]-spiperone, HEK-293 EBNA membranes, 1 h at RT
Base-10 log of Ki, unit nM.

- compound: "CC1(C)CC(CC(=O)N[C@H]2CC[C@H](CCN3CCN(c4noc5ccc(F)cc45)CC3)CC2)CCO1 (mixture of isomers) [Example 18]"
  log10 of Ki: 2.95
- compound: "COC[C@H]1C[C@H](CC(=O)N[C@H]2CC[C@H](CCN3CCN(c4noc5cc(Cl)ccc45)CC3)CC2)C1 [Example 48]"
  log10 of Ki: 2.85
- compound: "COCC(=O)N[C@H]1CC[C@H](CCN2CCN(c3noc4cc(F)c(F)cc34)CC2)CC1 [Example 60]"
  log10 of Ki: 2.94
- compound: "COC[C@H]1C[C@H](CC(=O)N[C@H]2CC[C@H](CCN3CCN(c4noc5ccc(F)cc45)CC3)CC2)C1 [Example 27]"
  log10 of Ki: 2.86
- compound: "CS(=O)(=O)CCC(=O)N[C@H]1CC[C@H](CCN2CCN(c3noc4cc(F)c(Cl)cc34)CC2)CC1 [Example 90]"
  log10 of Ki: 3.08

Provide log10 of Ki values for the following items, in order.
1. CSCCC(=O)N[C@H]1CC[C@H](CCN2CCN(c3noc4cc(F)c(Cl)cc34)CC2)CC1 [Example 81]
2. O=C(N[C@H]1CC[C@H](CCN2CCN(c3noc4cc(Cl)ccc34)CC2)CC1)C1CCOC1 (stereo partly drawn) [Example 34]
3. O=C(CC1CCOCC1)N[C@H]1CC[C@H](CCN2CCN(c3noc4cc(Cl)c(Cl)cc34)CC2)CC1 [Example 97]

Output:
[4.05, 2.29, 4.06]

Provide log10 of Ki values for the following items, in order.
1. O=C(CC1COCCO1)N[C@H]1CC[C@H](CCN2CCN(c3noc4ccc(F)cc34)CC2)CC1 (stereo partly drawn) [Example 15]
2. CO[C@H]1CC[C@H](CC(=O)N[C@H]2CC[C@H](CCN3CCN(c4noc5cc(C)ccc45)CC3)CC2)CC1 [Example 100]
3. CCOCC(=O)N[C@H]1CC[C@H](CCN2CCN(c3noc4cc(F)c(C)cc34)CC2)CC1 [Example 110]
4. COCCC(=O)N[C@H]1CC[C@H](CCN2CCN(c3noc4ccccc34)CC2)CC1 [Example 1]
5. O=C(CC1OCCCO1)N[C@H]1CC[C@H](CCN2CCN(c3noc4ccc(F)cc34)CC2)CC1 [Example 24]
6. Cc1cc2c(N3CCN(CC[C@H]4CC[C@H](NC(=O)CC5OCCCO5)CC4)CC3)noc2cc1F [Example 111]
7. NC(=O)CC(=O)N[C@H]1CC[C@H](CCN2CCN(c3noc4ccc(F)cc34)CC2)CC1 [Example 17]

Output:
1. 2.88
2. 2.69
3. 3.19
4. 2.54
5. 3.03
6. 3.61
7. 2.77

Provide log10 of Ki values for the following items, in order.
1. O=C(CO)N[C@H]1CC[C@H](CCN2CCN(c3noc4cc(F)c(Cl)cc34)CC2)CC1 [Example 87]
2. O=C(N[C@H]1CC[C@H](CCN2CCN(c3noc4ccc(F)cc34)CC2)CC1)C1CCOCC1 [Example 7]

Output:
1. 2.60
2. 2.82

Provide log10 of Ki values for the following items, in order.
1. O=C(N[C@H]1CC[C@H](CCN2CCN(c3noc4cc(Cl)ccc34)CC2)CC1)C(O)C(F)(F)F (mixture of isomers) [Example 33]
2. O=C(CC1(O)CCOCC1)N[C@H]1CC[C@H](CCN2CCN(c3noc4cc(F)c(F)cc34)CC2)CC1 [Example 61]
3. COC(=O)N[C@H]1CC[C@H](CCN2CCN(c3noc4cc(F)c(Cl)cc34)CC2)CC1 [Example 91]
4. O=C(CC1COCCO1)N[C@H]1CC[C@H](CCN2CCN(c3noc4cc(F)c(Cl)cc34)CC2)CC1 (stereo partly drawn) [Example 76]
5. O=C(C[C@@H]1CCCCO1)N[C@H]1CC[C@H](CCN2CCN(c3noc4cc(Cl)ccc34)CC2)CC1 [Example 50]

Output:
2.56
2.91
2.29
2.80
3.06

Input: Item O=C(C[C@H]1C[C@H](CO)C1)N[C@H]1CC[C@H](CCN2CCN(c3noc4cc(F)c(Cl)cc34)CC2)CC1 [Example 79] : provide log10 of Ki
Output: 3.84
